These data points were gathered from patent US20230049752A1.

- Measured target: human Claudin-6 (CLDN6) (human) (UniProt P56747)
- Measurement protocol: FACS, limiting dilution, UMUC4 cells
Measurement name: FACS signal at 0.32 nM
Could you respond with only the numeric value?

{"Binder": "AB S1 (antibody, V domains shown) VH: EVQLLESGGGLVQPGGSMRLSCAASGFTFSNYWMNWVRQAPGKGLEWIAQIRLKSDNYATHYTDSVKGRFTISRDDSKRTVYLQMNSLRAEDTGTYYCSDGPPSGSWGQGTLLTVSS VL: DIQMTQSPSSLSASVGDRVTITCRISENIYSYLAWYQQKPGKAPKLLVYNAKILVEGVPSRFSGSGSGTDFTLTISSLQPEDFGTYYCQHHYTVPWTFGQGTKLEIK", "Measurement name": "FACS signal at 0.32 nM", "Value measured": 639}
{"Binder": "AB1-11 (antibody, V domains shown, humanized; also called humanized AB1-11; HU-11) VH: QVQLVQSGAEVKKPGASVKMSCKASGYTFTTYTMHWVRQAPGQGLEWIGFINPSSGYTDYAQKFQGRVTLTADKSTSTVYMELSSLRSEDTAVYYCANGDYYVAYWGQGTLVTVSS VL: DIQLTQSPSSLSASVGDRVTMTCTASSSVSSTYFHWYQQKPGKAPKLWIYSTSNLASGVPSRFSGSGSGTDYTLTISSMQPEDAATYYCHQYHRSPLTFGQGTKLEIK", "Measurement name": "FACS signal at 0.32 nM", "Value measured": 618}
{"Binder": "AB S2 (antibody, V domains shown) VH: EVQLLESGGGLVQPGGSMRLSCAASGFTFSNYWMNWVRQAPGKGLEWIAQIRLKSDNYATHYADSVKGRFTISRDDSKRTVYLQMNSLRAEDTGTYYCSDGPPSGSWGQGTLLTVSS VL: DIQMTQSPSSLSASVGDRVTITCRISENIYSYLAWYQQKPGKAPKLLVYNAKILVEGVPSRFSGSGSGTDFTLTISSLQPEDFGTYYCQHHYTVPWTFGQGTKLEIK", "Measurement name": "FACS signal at 0.32 nM", "Value measured": 505}
{"Binder": "AB S9 (antibody, V domains shown) VH: QVQLVQSGAEVKKPGASVKMSCKASGYTFTTYTIHWVRQAPGQGLEWIGVINPSSGYTDYAQKFQGRVTLTADKSTSTVYMELSSLRSEDTAVYFCANGDYYVGYWGQGTLVTVSS VL: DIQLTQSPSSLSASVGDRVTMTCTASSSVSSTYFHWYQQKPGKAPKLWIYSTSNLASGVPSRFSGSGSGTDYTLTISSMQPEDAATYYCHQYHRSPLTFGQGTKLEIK", "Measurement name": "FACS signal at 0.32 nM", "Value measured": 1910}
{"Binder": "AB S3 (antibody, V domains shown) VH: EVQLLESGGGLVQPGGSMRLSCAASGFTFSNYWMNWVRQAPGKGLEWIAQIRLKSDNYVTHYTDSVKGRFTISRDDSKRTVYLQMNSLRAEDTGIYYCSDGPPSGSWGQGTLLTVSS VL: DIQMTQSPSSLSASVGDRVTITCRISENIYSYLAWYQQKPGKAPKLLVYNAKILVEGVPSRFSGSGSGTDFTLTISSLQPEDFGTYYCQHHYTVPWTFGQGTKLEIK", "Measurement name": "FACS signal at 0.32 nM", "Value measured": 533}
{"Binder": "AB S10 (antibody, V domains shown) VH: QVQLVQSGAEVKKPGASVKMSCKASGYTFTTYTMHWVRQAPGQGLEWIGFINPSSGYTEYAQKFQGRVTLTADKSTSTVYMELSSLRSEDTAVYYCANGDYYVGYWGQGTLVTVSS VL: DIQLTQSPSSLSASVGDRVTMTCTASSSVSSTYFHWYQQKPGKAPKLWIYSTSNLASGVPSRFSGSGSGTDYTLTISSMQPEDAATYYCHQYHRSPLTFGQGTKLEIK", "Measurement name": "FACS signal at 0.32 nM", "Value measured": 874}
{"Binder": "AB S7 (antibody, V domains shown) VH: QVQLVQSGAEVKKPGASVKMSCKASGYTFTTYTIHWVRQAPGQGLEWIGFINPSSGYTEYAQKFQGRVTLTADKSTSTVYMELSSLRSEDTAVYFCANGDYYVAYWGQGTLVTVSS VL: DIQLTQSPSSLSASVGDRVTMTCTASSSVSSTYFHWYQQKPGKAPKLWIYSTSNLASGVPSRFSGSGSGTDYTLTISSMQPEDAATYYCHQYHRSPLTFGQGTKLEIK", "Measurement name": "FACS signal at 0.32 nM", "Value measured": 1440}
{"Binder": "AB S8 (antibody, V domains shown) VH: QVQLVQSGAEVKKPGASVKMSCKASGYTFTTYTMHWVRQAPGQGLEWIGVINPSSGYTEYAQKFQGRVTLTADKSTSTVYMELSSLRSEDTAVYFCANGDYYVGYWGQGTLVTVSS VL: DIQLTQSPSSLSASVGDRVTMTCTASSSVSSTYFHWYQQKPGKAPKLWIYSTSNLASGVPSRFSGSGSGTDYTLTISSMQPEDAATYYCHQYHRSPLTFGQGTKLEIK", "Measurement name": "FACS signal at 0.32 nM", "Value measured": 720}

Problem: Give the measured FACS signal at 0.32 nM for AB S12 (antibody, V domains shown) VH: QVQLVQSGAEVKKPGASVKMSCKASGYTFTTYTMHWVRQAPGQGLEWIGFINPSSGYTEYAQKFQGRVTLTADKSTSTVYMELSSLRSEDTAVYFCANGDYYVGYWGQGTLVTVSS VL: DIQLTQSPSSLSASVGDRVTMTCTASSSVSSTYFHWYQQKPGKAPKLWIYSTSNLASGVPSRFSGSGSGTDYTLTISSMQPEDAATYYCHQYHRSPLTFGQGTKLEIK
Result: 947

Problem: Give the measured FACS signal at 0.32 nM for AB S11 (antibody, V domains shown) VH: QVQLVQSGAEVKKPGASVKMSCKASGYTFTTYTIHWVRQAPGQGLEWIGVINPSSGYTEYAQKFQGRVTLTADKSTSTVYMELSSLRSEDTAVYFCANGDYYVAYWGQGTLVTVSS VL: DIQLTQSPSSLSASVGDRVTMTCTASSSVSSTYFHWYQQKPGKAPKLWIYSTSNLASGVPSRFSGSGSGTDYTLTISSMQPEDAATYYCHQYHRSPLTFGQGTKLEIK
Result: 2350
